Exercise: for every item that follows, state its recorded Kp at 4 h.
Test: Brain exposure and brain-to-plasma ratio in mouse
Assay type: in vivo
Conditions: brain/plasma; C57BI/6N mouse, oral cassette 10 mg/kg, 4 h
Give bare numbers.

Cc1nc(N(C)C(=O)Cc2ccc(-c3cc(F)ccc3F)cc2)sc1[S@@](C)(=N)=O [Comparative Example C4/2, reference compound]: 1.57
[2H]C([2H])([2H])c1nc(N(C)C(=O)Cc2ccc(-c3cc(F)ccc3F)cc2)sc1S(N)(=O)=O: 0.78

Request the reported Kp at 4 h associated with [2H]C([2H])([2H])c1nc(N(C)C(=O)Cc2ccc(-c3cc(F)ccc3F)cc2)sc1[S@@](C)(=N)=O (single isomer, unassigned)
1.57

Entry source: patent US12552756B2
